IC50 values by entry
# TARGET_DESC: human PTP1B (Homo sapiens)
# Construct: made in house
# Sequence (P18031 whole entry): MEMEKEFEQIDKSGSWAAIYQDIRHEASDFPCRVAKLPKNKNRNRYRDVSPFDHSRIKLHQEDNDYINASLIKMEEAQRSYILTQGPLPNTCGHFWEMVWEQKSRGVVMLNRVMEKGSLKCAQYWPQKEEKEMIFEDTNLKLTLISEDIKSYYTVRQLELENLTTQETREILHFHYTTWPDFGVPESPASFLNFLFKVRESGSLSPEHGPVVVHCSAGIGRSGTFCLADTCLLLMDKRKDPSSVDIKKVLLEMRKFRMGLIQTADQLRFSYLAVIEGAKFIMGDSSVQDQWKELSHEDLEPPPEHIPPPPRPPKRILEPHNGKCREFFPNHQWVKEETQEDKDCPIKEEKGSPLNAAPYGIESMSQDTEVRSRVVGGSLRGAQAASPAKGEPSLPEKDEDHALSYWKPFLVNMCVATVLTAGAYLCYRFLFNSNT
# TEST_DESCRIPTION: biochemical
# CONDITION: pNPP substrate; mean ± SD, 3 experiments
READOUT: IC50 (µM)

• COc1c(C)c(O)c2c(c1-c1c(OC)c(C)c(O)c3c1C(=O)c1cc(C)cc(O)c1C3=O)C(=O)c1cc(C)cc(O)c1C2=O = 7.1
• COc1c(C)c(OC(C)=O)c2c(c1-c1c(OC)c(C)c(OC(C)=O)c3c1C(=O)c1cc(C)cc(OC(C)=O)c1C3=O)C(=O)c1cc(C)cc(OC(C)=O)c1C2=O = 31.2
• CC(C)=CCc1c(C)c(CC=C(C)C)c2c(c1O)C(=O)c1c(O)cc(O)c(CC=C(CO)CO)c1C2 = 14.7
• CC(C)=CCc1c(C)c(CC=C(C)C)c2c(c1O)C(=O)c1c(O)cc(O)c(CC=C(C)C)c1C2 = 11.8
• CC(C)=CCc1c(O)ccc(C(=O)[C@H]2[C@@H](c3c(O)cc(/C=C/c4ccc(O)cc4O)cc3O)C=C(C)C[C@@H]2c2ccc(O)cc2O)c1O = 9.6
• CC(C)=CCC/C(C)=C/Cc1cc(CCC(=O)c2c(O)cc(O)c(CC=C(C)C)c2O)ccc1O = 20.9

Numbers sourced from paper PMC3796549.
